test system: Canis familiaris; assay: in vivo; conditions: dog, po, 25 mg/kg
Metric name: Cmax
Field: value (include unit after the number)

In: Consider the compound CC(C)(C)n1cc(C(=O)O)c(=O)c2cc(F)c(N3C[C@H]4C[C@@H]3CN4)nc21 and give its measured Cmax.
Out: 5600 ng/mL

====

assay: Tested for aqueous solubility; type: physicochemical; conditions: aqueous medium; read-out: S
Metric name: solubility (µg/mL)
Numeric only. Scale: µg/mL

In: Consider the compound CC(C)(C)n1cc(C(=O)O)c(=O)c2cc(F)c(N3C[C@H]4C[C@@H]3CN4)cc21.CS(=O)(=O)O and give its measured solubility.
Out: 230

====

species: Canis familiaris; conditions: dog, in vivo, po, 25 mg/kg
Description: Area under the concentration/ time determined against Bacillus subtilis ATCC 6633 after oral administration in dog(25 mg/kg)
Metric name: AUC (ng·h/mL)
Numeric only. Scale: ng·h/mL

In: Consider the molecule CC(C)(C)n1cc(C(=O)O)c(=O)c2cc(F)c(N3C[C@H]4C[C@@H]3CN4)nc21 and give its measured AUC.
Out: 55000

In: Similarly, CC(C)(C)n1cc(C(=O)O)c(=O)c2cc(F)c(N3CCNCC3)nc21 ?
Out: 50000

====

test system: Enterococcus faecalis; assay: In vitro minimum inhibitory concentration (MIC) against Enterococcus faecalis A 9808 at 37 degrees C for 18 h.; type: functional
Labelling: MIC reported below 2 µg/mL becomes T; at or above becomes F.

In: Identify whether the compound CNC1CCN(c2nc3c(cc2F)c(=O)c(C(=O)O)cn3C(C)(C)C)C1 (stereo not drawn) records MIC below 2 µg/mL.
Out: T

In: Similarly, CC(C)(C)n1cc(C(=O)O)c(=O)c2cc(F)c(N3C[C@@H](CN)[C@H](F)C3)nc21.CS(=O)(=O)O ?
Out: T

In: Similarly, CC(C)(C)n1cc(C(=O)O)c(=O)c2cc(F)c(N3CCNC(c4ccccc4)C3)cc21.CS(=O)(=O)O (stereo not drawn) ?
Out: T

In: Similarly, CC(C)(C)n1cc(C(=O)O)c(=O)c2cc(F)c(N3CCC(N)C3)nc21.CS(=O)(=O)O (stereo not drawn) ?
Out: T

In: Similarly, CC1CN(c2cc3c(cc2F)c(=O)c(C(=O)O)cn3C(C)(C)C)CCN1 (stereo not drawn) ?
Out: T

In: Similarly, CS(=O)(=O)O.C[C@H]1CN(c2nc3c(cc2F)c(=O)c(C(=O)O)cn3C(C)(C)C)C[C@H]1N ?
Out: T

In: Similarly, CC(C)(C)n1cc(C(=O)O)c(=O)c2cc(F)c(N3CCNCC3)cc21 ?
Out: T

In: Similarly, O=C(O)c1cn(C2CC2)c2cc(N3CCNCC3)c(F)cc2c1=O ?
Out: T

In: Similarly, CCn1cc(C(=O)O)c(=O)c2cc(F)c(N3CCNCC3)cc21 ?
Out: F

In: Similarly, CC[C@H]1CN(c2nc3c(cc2F)c(=O)c(C(=O)O)cn3C(C)(C)C)C[C@@H]1N.CS(=O)(=O)O ?
Out: T

In: Similarly, CC(C)(C)n1cc(C(=O)O)c(=O)c2cc(F)c(N3CCNC(CF)C3)nc21.CS(=O)(=O)O (stereo not drawn) ?
Out: F

In: Similarly, CC1(N)CCN(c2nc3c(cc2F)c(=O)c(C(=O)O)cn3C(C)(C)C)C1 (stereo not drawn) ?
Out: T

In: Similarly, CC(C)(C)n1cc(C(=O)O)c(=O)c2cc(F)c(N3C[C@@H]4C[C@H]3CN4)cc21 ?
Out: F

====

test system: Canis familiaris; experiment: in vivo; conditions: dog, po, 25 mg/kg
Metric name: half-life (h)
Numeric only. Scale: h

In: Consider the compound CC(C)(C)n1cc(C(=O)O)c(=O)c2cc(F)c(N3C[C@H]4C[C@@H]3CN4)nc21 and give its measured half-life.
Out: 4.5

====

system: Enterococcus faecium; experiment: In vitro minimum inhibitory concentration (MIC) against Enterococcus faecium A 24885 at 37 degrees C for 18 h.; type: functional
Assign log10 MIC to each entry below.
log10 MIC, µg/mL

In: Consider the compound CC(C)(C)n1cc(C(=O)O)c(=O)c2cc(F)c(N3C[C@@H](CN)[C@@H](F)C3)nc21 and give its measured log10 MIC.
Out: 0.00

In: Similarly, CC(C)(C)n1cc(C(=O)O)c(=O)c2cc(F)c(N3C[C@H]4C[C@@H]3CN4)cc21.CS(=O)(=O)O ?
Out: 0.60

In: Similarly, CC[C@H]1CN(c2nc3c(cc2F)c(=O)c(C(=O)O)cn3C(C)(C)C)C[C@H]1N.Cl ?
Out: 0.30

In: Similarly, CN(C)C1CCN(c2nc3c(cc2F)c(=O)c(C(=O)O)cn3C(C)(C)C)C1 (stereo not drawn) ?
Out: 0.90

In: Similarly, CN1CCN(c2cc3c(cc2F)c(=O)c(C(=O)O)cn3C(C)(C)C)CC1.Cl ?
Out: 1.20

In: Similarly, CC(C)(C)n1cc(C(=O)O)c(=O)c2cc(F)c(N3CCNC(c4ccccc4)C3)cc21.CS(=O)(=O)O (stereo not drawn) ?
Out: 0.60

In: Similarly, CC(C)(C)n1cc(C(=O)O)c(=O)c2cc(F)c(N3C[C@H]4C[C@@H]3CN4)nc21 ?
Out: 0.00

In: Similarly, CC(C)(C)n1cc(C(=O)O)c(=O)c2cc(F)c(N3C[C@@H](N)[C@H](F)C3)nc21.CS(=O)(=O)O ?
Out: 0.30

In: Similarly, CCn1cc(C(=O)O)c(=O)c2cc(F)c(N3CCNCC3)cc21 ?
Out: 0.90

In: Similarly, CC(C)(C)n1cc(C(=O)O)c(=O)c2cc(F)c(N3C[C@@H](CN)[C@H](F)C3)nc21.CS(=O)(=O)O ?
Out: -0.60

In: Similarly, CC(C)(C)n1cc(C(=O)O)c(=O)c2cc(F)c(N3CC4CCC3CN4)nc21 (stereo not drawn) ?
Out: 0.30

In: Similarly, CC[C@H]1CN(c2nc3c(cc2F)c(=O)c(C(=O)O)cn3C(C)(C)C)C[C@@H]1N.CS(=O)(=O)O ?
Out: 0.30

In: Similarly, CC(C)(C)n1cc(C(=O)O)c(=O)c2cc(F)c(N3CCNC(c4ccccc4)C3)nc21.CS(=O)(=O)O (stereo not drawn) ?
Out: 0.90

In: Similarly, CN1C2CCC1CN(c1cc3c(cc1F)c(=O)c(C(=O)O)cn3C(C)(C)C)C2.Cl ?
Out: 0.90

In: Similarly, CC(C)(C)n1cc(C(=O)O)c(=O)c2cc(F)c(N3C[C@@H]4C[C@H]3CN4)cc21 ?
Out: 1.20

In: Similarly, CC(C)(C)n1cc(C(=O)O)c(=O)c2cc(F)c(N3C4CCC3CNC4)nc21.CS(=O)(=O)O ?
Out: 0.60

In: Similarly, CC1(N)CCN(c2nc3c(cc2F)c(=O)c(C(=O)O)cn3C(C)(C)C)C1 (stereo not drawn) ?
Out: 0.60

In: Similarly, CC1(N)CCN(c2cc3c(cc2F)c(=O)c(C(=O)O)cn3C(C)(C)C)C1 (stereo not drawn) ?
Out: 0.60

In: Similarly, CC(C)(C)n1cc(C(=O)O)c(=O)c2cc(F)c(N3C[C@@H](N)[C@@H](F)C3)nc21.CS(=O)(=O)O ?
Out: 0.60

In: Similarly, CC1CN(c2nc3c(cc2F)c(=O)c(C(=O)O)cn3C(C)(C)C)CCN1C (stereo not drawn) ?
Out: 0.60

In: Similarly, CC(C)(C)n1cc(C(=O)O)c(=O)c2cc(F)c(N3CCNCC3)cc21 ?
Out: 0.60

In: Similarly, CC1CN(c2cc3c(cc2F)c(=O)c(C(=O)O)cn3C(C)(C)C)CC(C)N1 (stereo not drawn) ?
Out: 0.90

In: Similarly, CCNC1CCN(c2nc3c(cc2F)c(=O)c(C(=O)O)cn3C(C)(C)C)C1 (stereo not drawn) ?
Out: 0.60

In: Similarly, CNC1CCN(c2nc3c(cc2F)c(=O)c(C(=O)O)cn3C(C)(C)C)C1 (stereo not drawn) ?
Out: 0.90

In: Similarly, CN1CCN(c2nc3c(cc2F)c(=O)c(C(=O)O)cn3C(C)(C)C)CC1 ?
Out: -0.30

In: Similarly, CC(C)(C)n1cc(C(=O)O)c(=O)c2cc(F)c(N3CC4CCC3CN4)cc21 (stereo not drawn) ?
Out: 0.60

In: Similarly, CC(C)(C)n1cc(C(=O)O)c(=O)c2cc(F)c(N3CCC(CN)C3)nc21 (stereo not drawn) ?
Out: 0.30

In: Similarly, CC(C)(C)n1cc(C(=O)O)c(=O)c2cc(F)c(N3CC4CCC(C3)N4)nc21.CS(=O)(=O)O ?
Out: 0.60

In: Similarly, CS(=O)(=O)O.C[C@H]1CN(c2nc3c(cc2F)c(=O)c(C(=O)O)cn3C(C)(C)C)C[C@@H]1N ?
Out: -0.30

In: Similarly, CC(C)(C)n1cc(C(=O)O)c(=O)c2cc(F)c(N3CCNC(CF)C3)nc21.CS(=O)(=O)O (stereo not drawn) ?
Out: 1.20

In: Similarly, O=C(O)c1cn(C2CC2)c2cc(N3CCNCC3)c(F)cc2c1=O ?
Out: 0.60

In: Similarly, CC(C)(C)n1cc(C(=O)O)c(=O)c2cc(F)c(N3C[C@@H]4C[C@H]3CN4)nc21 ?
Out: 0.60

In: Similarly, CCNCC1CCN(c2nc3c(cc2F)c(=O)c(C(=O)O)cn3C(C)(C)C)C1 (stereo not drawn) ?
Out: 0.90

In: Similarly, CN1C2CCC1CN(c1nc3c(cc1F)c(=O)c(C(=O)O)cn3C(C)(C)C)C2.CS(=O)(=O)O ?
Out: 1.20

In: Similarly, CC(C)(C)n1cc(C(=O)O)c(=O)c2cc(F)c(N3CCNC(CF)C3)cc21 (stereo not drawn) ?
Out: 0.90

In: Similarly, CC1CN(c2nc3c(cc2F)c(=O)c(C(=O)O)cn3C(C)(C)C)CCN1 (stereo not drawn) ?
Out: 0.30

In: Similarly, CC(C)(C)n1cc(C(=O)O)c(=O)c2cc(F)c(N3CCNCC3)nc21 ?
Out: 0.90

In: Similarly, CC(C)(C)n1cc(C(=O)O)c(=O)c2cc(F)c(N3CCC(CN)C3)cc21 (stereo not drawn) ?
Out: -0.30
